FYI, the data here is from patent US20040072839A1.

So I've got a bunch of compounds here, and I need their pKi values.
- Measured on: human 5-HT1A-serotonergic receptor (Homo sapiens)
- Construct: membrane preparation
- Sequence (P08908 whole entry): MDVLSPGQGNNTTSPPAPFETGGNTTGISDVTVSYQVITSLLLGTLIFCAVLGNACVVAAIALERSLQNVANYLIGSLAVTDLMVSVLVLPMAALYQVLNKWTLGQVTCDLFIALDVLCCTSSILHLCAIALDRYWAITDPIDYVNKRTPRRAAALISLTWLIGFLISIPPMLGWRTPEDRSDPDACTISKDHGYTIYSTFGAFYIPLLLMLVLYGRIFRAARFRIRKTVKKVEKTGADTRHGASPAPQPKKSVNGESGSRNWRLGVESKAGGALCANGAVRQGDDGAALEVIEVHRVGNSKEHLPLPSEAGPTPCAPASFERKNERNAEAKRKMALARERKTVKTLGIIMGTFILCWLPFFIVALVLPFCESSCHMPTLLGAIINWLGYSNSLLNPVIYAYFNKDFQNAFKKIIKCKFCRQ
- Method notes: Radioligand binding to recombinant 5-HT1A receptors ([3H]8-OH-DPAT, HeLa cell membranes)
- Run parameters: 1 nM [3H]8-OH-DPAT; Ki from IC50 by Cheng & Prusoff; read-out: Ki, binding affinity for 5-HT1A receptors
Please keep in mind that pKi is minus log10 of the molar concentration; only the number is needed.

Request: pKi for CC(O)C(CCN1CCN(c2cccc3c2OCCO3)CC1)c1ccccc1OC(F)(F)F (stereo not drawn) ?
Result: 8.08

Request: Subsequent entry: C=CCOC(C1CCCCC1)C(CCN1CCN(c2ccc(F)cc2OC)CC1)c1ccccc1 (stereo not drawn)
Result: 8.69

Request: Subsequent entry: COc1cc(F)ccc1N1CCN(CCC(c2ccccc2C#N)C(O)C2CCCCC2)CC1 (stereo not drawn)
Result: 9.05
